The measured values listed here are drawn from the domain aggregation screens of Martell et al. (2025).

experiment: soluble fraction after stress (log2 fold change); higher = more stays soluble; pooled small domains, quantitative proteomics; settings: stress: pH 4
Quantity Measured: soluble fraction (log2)
// no unit string in output, number only

Examples with their reported soluble fraction (log2) follow.
| Macromolecule Sequence | soluble fraction (log2) |
| --- | --- |
| HMSYPEIFQSLTEREQKIADMIAEHLSNKEIAEKMFLSEGTIKQYINQIYSKLQITGDIRNKRKQLIELFH | -0.0222 |
| HMHANAALTPRQRLRLAQKIVDEEWTVAAAADYFRVSWPTAAKWARRYVELGEAGMADRSSRP | -0.641 |

Then this sequence:
Lookup: Consider the sequence HMSSGKTGTITLQPKQTVYGITKQYKISEADLRKLNPQLDSNLKIGDKITLPLDNIQRYSDSSSNVAQT and give its measured soluble fraction (log2).
Found: 0.22
